Target: T1, human GIP receptor (GIPR) (human), P48546
T1 chain: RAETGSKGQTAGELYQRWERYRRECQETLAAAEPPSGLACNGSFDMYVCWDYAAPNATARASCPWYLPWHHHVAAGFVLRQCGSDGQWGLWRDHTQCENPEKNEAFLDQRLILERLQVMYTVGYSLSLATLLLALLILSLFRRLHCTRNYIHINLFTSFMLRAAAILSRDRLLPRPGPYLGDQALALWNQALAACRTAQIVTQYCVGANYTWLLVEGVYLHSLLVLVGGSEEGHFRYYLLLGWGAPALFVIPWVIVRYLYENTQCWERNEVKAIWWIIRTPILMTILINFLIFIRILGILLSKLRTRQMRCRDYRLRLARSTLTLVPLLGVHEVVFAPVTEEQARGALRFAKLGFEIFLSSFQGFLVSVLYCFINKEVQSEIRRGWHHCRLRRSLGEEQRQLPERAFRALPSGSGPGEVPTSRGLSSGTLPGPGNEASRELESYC
Assay: other, Schild cAMP
Details: modification not given
No end group written: not given here.
# if measured Ki < 0.01 µM: Y  # else: N

EGTFISDYSIAMEKIAQQDFVNWLLAQK [hGIP(3-30)D15E H18A]    Y
EGTFISDYSIAMDKIKQQDFVNWLLAQK [hGIP(3-30)H18K]    N
EGTFISDYSIAMDAIAQQDFVNWLLAQK [hGIP(3-30)K16A H18A]    N

Ask | Answer whether the binder EGTFISDYSIAMDKIAQQDFVNWLLAQK [hGIP(3-30)H18A] has Ki strictly less than 0.01 µM
Reply | N

Ask | Next up: TFISDYSIAMDKIHQQDFVNWLLAQK (not fully specified (C-terminus)) [GIP(5-30)NH2]
Reply | N

Numbers sourced from patent US20180258152.
